- Method notes: Excitation and fluorescence wavelengths by fluorescence spectrometer FL4500
- Assay type: physicochemical
- Conditions: aqueous solution: 10 mg/mL DMSO solution diluted to 1/500 with purified water (Examples 1 to 94); in nm (unit assumed)

{"columns": ["Compound", "λem (fluorescence wavelength)"],
 "data": [
  ["O=C(O)CN1C(=O)/C(=C/c2ccc3c(c2)[C@@H]2CCC[C@@H]2N3c2ccc(C=C(c3ccccc3)c3ccccc3)cc2)SC1=S", 655],
  ["CCN(CC)c1ccc2cc(-c3nc4ccccc4s3)c(=O)oc2c1", 555],
  ["CCN(CC)CC.O=S(=O)([O-])CCC[n+]1c(/C=C/C=C2\\Sc3ccccc3N2CCCS(=O)(=O)O)sc2ccccc21", 576],
  ["CCN1/C(=C\\C=C\\C2=[N+](CC)c3ccccc3C23CCCCC3)C2(CCCCC2)c2ccccc21.[I-]", 569],
  ["CCCCN1C(=O)/C(=c2\\s/c(=C/c3ccc4c(c3)C3CCCC3N4c3ccc(OC)cc3)c(=O)n2CC(=O)OCC)SC1=S (stereo not drawn)", 527],
  ["CCN1S/C(=c2\\s/c(=C/c3ccc4c(c3)[C@@H]3CCC[C@@H]3N4Cc3ccccc3)c(=O)n2CC(=O)O)SC1=S", 657]
]}

====

- System: intraocular tissue (retinal tissue incl. photoreceptor cell layer, vitreous body) of Zebrafish 7-day-old embryo
- Method notes: Staining of intraocular tissue of Zebrafish fry by exposure to staining liquid, ocular tissue section observed by confocal microscope
- Format: in vivo
- Conditions: Zebrafish 7 dpf fry, 1 μg/mL, 1 hour exposure, fixed ocular section

{"columns": ["Given smiles", "Staining ability"],
 "data": [
  ["CCN1C(=O)/C(=c2\\s/c(=C/c3ccc(N(c4ccccc4)c4ccc5c(c4)C(C)(C)c4ccccc4-5)cc3)c(=O)n2CC(=O)O)SC1=S", "++"],
  ["CCN1/C(=C\\C=C\\C2=[N+](CC)c3ccccc3C23CCCCC3)C2(CCCCC2)c2ccccc21.[I-]", "+++"],
  ["Nc1c(OCCCOc2ccccc2)cc(O)c2c1C(=O)c1ccccc1C2=O", "∘"],
  ["CN(C)c1ccc(/C=C/C=C/c2sc3ccccc3[n+]2CC(=O)O)cc1.[Br-]", "++"],
  ["Cn1c(=O)cc2c3c(c(NCc4ccccc4)ccc31)C(=O)c1ccccc1-2", "++"]
]}
